assay: Cytotoxicity against HIV-2 ROD mock-infected human MT4 cells assessed as reduction in cell viability by MTT assay; assay type: cell-based; details: HIV-2 ROD mock-infected MT4 cells
metric.name: CC50

Cc1ccnc2c1NC(=O)c1cccnc1N2C1CC1 | > 15 µM

Task item: Find the recorded CC50 belonging to CCOC(=O)c1ccc(NC(=O)CSc2nnccc2-c2cccc3ccccc23)c(Br)c1 and report it.
Reply: > 239 µM

Task item: Find the recorded CC50 belonging to CC(C)Nc1cccnc1N1CCN(C(=O)c2cc3cc(NS(C)(=O)=O)ccc3[nH]2)CC1 and report it.
Reply: > 36.2 µM
